The reported numbers originate from paper PMC8875489.

test system: Salmonella Typhimurium TA100 strain; settings: 10 µM; TA100; alert ≥ 2.0
Fold Increase over Baseline values, listed per item
measurement.kind: Fold Increase over Baseline

[[record]]
molecule = "O=C(C[Se]C(=O)c1ccccc1)Oc1ccccc1 [EDA-93, phenyl 2-(benzoylselanyl)acetate]"
quantitative_readout = 0.87

[[record]]
molecule = "C[Se]C(=O)c1ccc(C(=O)[Se]C)s1 [EDA-122]"
quantitative_readout = 1.08

[[record]]
molecule = "O=C1[Se]C(=O)c2ccccc21 [EDA-A6, benzo[c]selenophene-1,3-dione]"
quantitative_readout = 0.33

